tested on: P12-Ichikawa; assay: cell viability relative to DMSO control; higher = less cytotoxic; details: RPMI 5 mM glucose + 10% dialyzed FBS; 48 h; 0.0632 µM
metric: cell viability (%)
Express your answer in %, writing the number without its unit.

Look over these answered cases.
OC1=CC2=C(C(=C1)O)C(=O)\C(=C(/O2)C3=CC(=C(O)C=C3)O)O ... 117
COc1cc(C(=O)NS(=O)(=O)c2ccccc2C)ccc1Cc1cn(C)c2ccc(NC(=O)OC3CCCC3)cc12 ... 83.8
Cc1nc(Nc2n[nH]c3c2CN(C(=O)N[C@H](CN(C)C)c2ccccc2)C3(C)C)c2sccc2n1 ... 63.6

Now look at this one.
Incoming: Data request, read-out cell viability, for OC[C@H]1O[C@@H](Oc2cc(O)cc(/C=C/c3ccc(O)cc3)c2)[C@H](O)[C@@H](O)[C@@H]1O
Outgoing: 114

---

Entries and their cell viability values follow.
tested on: P12-Ichikawa; assay: cell viability relative to DMSO control; higher = less cytotoxic; conditions: HPLM + 10% dialyzed FBS; 48 h; 0.00702 µM
Express your answer in %, writing the number without its unit.

CC(C)Oc1ccc(C(=O)N[C@H](CNC(=O)CN(C)C)Cc2ccc(-c3cn4cccc([C@H](C)O)c4n3)cc2)cc1Cl ... 118
CN(C)C1=C(Br)C=C(C=C1)C\2NC3=C(\C4=C2C(=O)CC(C)(C)C4)C5=CC=CC=C5C=C3 (stereo not drawn) ... 118
COc1ccc2cc1Oc1ccc(cc1)C[C@H]1c3cc(c(OC)cc3CCN1C)Oc1c(OC)c(OC)cc3c1[C@H](C2)N(C)CC3 ... 118
C[S+](=O)([O-])c1ccc(Oc2cc(F)cc(C#N)c2)c2c1[C@H](O)C(F)(F)C2 ... 102
C[C@@H](O)[C@@H]1NC(=O)[C@H](CCCCN)NC(=O)[C@@H](Cc2c[nH]c3ccccc23)NC(=O)[C@H](Cc2ccccc2)NC(=O)[C@@H](NC(=O)[C@H](N)Cc2ccccc2)CSSC[C@@H](C(=O)N[C@H](CO)[C@@H](C)O)NC1=O ... 88.9
CCN1CCCC1CNC(=O)c1cc([S+](N)(=O)[O-])ccc1OC (stereo not drawn) ... 119
CC(C)(C)[C@H](NC(=O)c1ccc(N)c(Cl)c1)C(=O)N1CCC[C@H]1C(=O)N[C@H](C#N)CC(=O)O ... 123
COc1cccc2c1[C@]13CCN(CC4CC4)[C@H](C2)[C@]1(OC)CCC(=O)C3 ... 66.7

Now look at this one.
Incoming: Data request, read-out cell viability, for CO/N=C(/C(=O)N[C@@H]1C(=O)N2C(C(=O)O)=C(CSC(=O)c3ccco3)CS[C@H]12)c1csc(N)n1
Outgoing: 112

---

Entries and their AUC of viability dose-response curve values follow.
tested on: P12-Ichikawa; assay: AUC of viability dose-response curve (% viability x log10 dose units); higher = less sensitive; conditions: RPMI 5 mM glucose + 10% dialyzed FBS; 48 h
Number only, no unit.

Look over these answered cases.
N#C/C(C(=O)c1ccc(Cl)cc1Cl)=C1/NC(=O)c2ccc(Cl)cc2N1 ... 463
O=C(/C=C/c1ccc(O)cc1)c1ccc(O)cc1O ... 420
C[C@@H](O)[C@@H]1NC(=O)[C@H](CCCCN)NC(=O)[C@@H](Cc2c[nH]c3ccccc23)NC(=O)[C@H](Cc2ccccc2)NC(=O)[C@@H](NC(=O)[C@H](N)Cc2ccccc2)CSSC[C@@H](C(=O)N[C@H](CO)[C@@H](C)O)NC1=O ... 391
NC(=O)NO ... 367
COc1ccc2cc1Oc1ccc(cc1)C[C@H]1c3cc(c(OC)cc3CCN1C)Oc1c(OC)c(OC)cc3c1[C@H](C2)N(C)CC3 ... 458

Incoming: Data request, read-out AUC of viability dose-response curve, for CC[S+](=O)([O-])N1CC(CC#N)(n2cc(-c3ncnc4[nH]ccc34)cn2)C1
Outgoing: 443

Incoming: Let us now turn to O=c1oc2c(O)c(O)cc3c(=O)oc4c(O)c(O)cc1c4c23
Outgoing: 458

Incoming: Let us now turn to COC(=O)\C1=C\CCN(C)C1
Outgoing: 468

---

Entries and their cell viability values follow.
tested on: SEM cells; assay: cell viability relative to DMSO control; higher = less cytotoxic; details: RPMI 5 mM glucose + 10% dialyzed FBS; 48 h; 0.0632 µM
Express your answer in %, writing the number without its unit.

Look over these answered cases.
CCOc1ccc(Cc2cc([C@@H]3O[C@H](CO)[C@@H](O)[C@H](O)[C@H]3O)ccc2Cl)cc1 ... 117
Cn1cc(C[C@@H](N)C(=O)O)c2ccccc21 ... 97.7
NC(=O)Nc1cc(-c2cccc(F)c2)sc1C(=O)N[C@H]1CCCNC1 ... 32.2
Cc1cccc(/C=N/Nc2cc(N3CCOCC3)nc(OCCc3ccccn3)n2)c1 ... 90.3

Incoming: Data request, read-out cell viability, for O=C(/C=C/c1ccc(O)cc1)c1ccc(O)cc1O
Outgoing: 121

---

Entries and their cell viability values follow.
tested on: P12-Ichikawa; experiment: cell viability relative to DMSO control; higher = less cytotoxic; conditions: HPLM + 10% dialyzed FBS; 48 h; 1.71 µM
Put your answer as a value accompanied by its unit after it.

Look over these answered cases.
CN(C)C(=O)C(CCN1CCC(O)(c2ccc(Cl)cc2)CC1)(c1ccccc1)c1ccccc1 ... 116%
O.O.CCN1CCN(C(=O)N[C@H](C(=O)N[C@H]2[C@@H]3SC\C(=C(/N3C2=O)C(O)=O)CSC4=NN=N[N]4C)C5=CC=C(O)C=C5)C(=O)C1=O ... 95.9%
OCCn1cc(-c2cnc3nnn(Cc4ccc5ncccc5c4)c3n2)cn1 ... 107%
CC[C@]1(O)C[C@@H]2CN(CCc3c([nH]c4ccccc34)[C@@](C(=O)OC)(c3cc4c(cc3OC)N(C)[C@H]3[C@@](O)(C(N)=O)[C@H](O)[C@]5(CC)C=CCN6CC[C@]43[C@@H]65)C2)C1 ... 14.2%

Now look at this one.
Incoming: Data request, read-out cell viability, for CO/N=C(/C(=O)N[C@@H]1C(=O)N2C(C(=O)O)=C(CSC(=O)c3ccco3)CS[C@H]12)c1csc(N)n1
Outgoing: 118%

---

system: P12-Ichikawa; experiment: AUC of viability dose-response curve (% viability x log10 dose units); higher = less sensitive; details: HPLM + 10% dialyzed FBS; 48 h
metric: AUC of viability dose-response curve
Number only, no unit.

Look over these answered cases.
CO/N=C(\C(=O)N[C@@H]1C(=O)N2C(C(=O)OCOC(=O)C(C)(C)C)=C(/C=C\c3scnc3C)CS[C@H]12)c1csc(N)n1 ... 463
N#C/C(C(=O)c1ccc(Cl)cc1Cl)=C1/NC(=O)c2ccc(Cl)cc2N1 ... 451
CCOC(=O)Nc1ccc(NCc2ccc(F)cc2)nc1N ... 456
C[C@H]1O[C@H]([C@H](O)[C@@H]1O)N2\C=C(F)/C(=O)NC2=O ... 443
CN(C)C1=C(Br)C=C(C=C1)C\2NC3=C(\C4=C2C(=O)CC(C)(C)C4)C5=CC=CC=C5C=C3 (stereo unspecified) ... 466
COC(=O)\C1=C\CCN(C)C1 ... 446
CCOC1=CC=CC=C1N\2C(=O)C3=C(C=CC=C3)\N=C2C(C)N4CCN(CC4)C(=O)COC5=CC=C(Cl)C=C5 (stereo unspecified) ... 303
CN1CCN(CCCN2c3ccccc3Sc3ccc(C(F)(F)F)cc32)CC1 ... 426

Incoming: Data request, read-out AUC of viability dose-response curve, for NC(=O)Nc1cc(-c2cccc(F)c2)sc1C(=O)N[C@H]1CCCNC1
Outgoing: 345

Incoming: Let us now turn to CO/N=C(/C(=O)N[C@@H]1C(=O)N2C(C(=O)O)=C(CSC(=O)c3ccco3)CS[C@H]12)c1csc(N)n1
Outgoing: 472

Incoming: Let us now turn to CNC(=O)CN1CCC(Oc2cc3c(Nc4cccc(Cl)c4F)ncnc3cc2OC)CC1
Outgoing: 364

Incoming: Let us now turn to CON(C)C(=O)N1/N=C(S[C@@]1(CCCN)C2=CC=CC=C2)/C3=CC(=CC=C3F)F
Outgoing: 183

Incoming: Let us now turn to CN(Cc1cc(Br)cc(Br)c1N)C1CCCCC1
Outgoing: 468

Incoming: Let us now turn to CN(C)/N=N/c1nc[nH]c1C(N)=O
Outgoing: 422

Incoming: Let us now turn to OC[C@H]1O[C@@H](Oc2cc(O)cc(/C=C/c3ccc(O)cc3)c2)[C@H](O)[C@@H](O)[C@@H]1O
Outgoing: 449

Incoming: Let us now turn to C[C@H]1O[C@H](C[C@H](O)[C@@H]1O)O[C@H]2[C@@H](O)C[C@@H](O[C@@H]2C)O[C@H]3[C@@H](O)C[C@@H](O[C@@H]3C)O[C@H]4CC[C@@]5(C)[C@H](CC[C@@H]6[C@@H]5C[C@@H](O)[C@]7(C)[C@H](CC[C@]67O)C/8=C/C(=O)OC8)C4
Outgoing: 208

Incoming: Let us now turn to Cc1onc(-c2ccccc2)c1C(=O)N[C@@H]1C(=O)N2[C@@H]1SC(C)(C)[C@@H]2C(=O)[O-].[Na+]
Outgoing: 440

Incoming: Let us now turn to CC(C)(O)c1cc2nc(-c3cnc(N)nc3)nc(N3CCOCC3)c2s1
Outgoing: 406

Incoming: Let us now turn to C[C@](N)(Cc1ccc(O)c(O)c1)C(=O)O
Outgoing: 427
